Test: clinical
Conditions: both, human, in vivo
value_kind: half-life (min)
Numbers only, in min.

Task: Item CCC1=C(C)CN(C(=O)NCCc2ccc(S(=O)(=O)NC(=O)N[C@H]3CC[C@H](C)CC3)cc2)C1=O [glimepiride] has what recorded half-life?
Output: 224
